# System: Phakopsora pachyrhizi
# assayNotes: Fungicidal activity against Phakopsora pachyrhizi / soybean / leaf disc preventative (Asian soybean rust)
# Format: in vivo
# measurementConditions: foliar, 200 ppm in the applied formulation, soybean leaf disks, vs untreated control, read-out: disease control
propertyLabel: pest or weed control at 200 ppm

{"columns": ["molecule", "testTarget", "pest or weed control at 200 ppm"],
 "data": [
  ["CC(CNC(=O)c1ccc(-c2noc(C(F)(F)F)n2)cc1)=NOCC1CC1 [Compound 1.145]", "Phakopsora pachyrhizi", "≥ 80%"]
]}

pest or weed control at 200 ppm for O=C(NCC=NOCCO)c1ccc(-c2noc(C(F)(F)F)n2)cc1 [Compound 1.60] ?
≥ 80%

// query: CC(C=NOCCO)NC(=O)c1ccc(-c2noc(C(F)(F)F)n2)cc1 (centres unmarked) [Compound 1.15]
≥ 80%

// query: CC(CNC(=O)c1ccc(-c2noc(C(F)(F)F)n2)cc1)=NOCc1ccccc1 [Compound 1.134]
≥ 80%

====

Each entry below lists one item and its recorded melting point value.

Solved cases below.
{"columns": ["compound", "melting point"],
 "data": [
  ["CC(CNC(=O)c1ccc(-c2noc(C(F)(F)F)n2)cc1)=NOCCF", "133 to 134 °C"],
  ["CON=CC(C)NC(=O)c1ccc(-c2noc(C(F)(F)F)n2)cc1F (centres unmarked)", "132 to 134 °C"],
  ["CC(/C=N/OCCF)NC(=O)c1ccc(-c2noc(C(F)(F)F)n2)cc1 (centres unmarked)", "138 to 139 °C"],
  ["CON=CCNC(=O)c1ccc(-c2noc(C(F)(F)F)n2)cc1F", "116 to 118 °C"]
]}

melting point for "CON=C(C)CNC(=O)c1ccc(-c2noc(C(F)(F)F)n2)cc1F" ?
122 to 124 °C

====

Each entry below lists one item and its recorded melting point value.

{"columns": ["compound", "result"],
 "data": [
  ["CCON=C(C)CNC(=O)c1ccc(-c2noc(C(F)(F)F)n2)c(F)c1 [Compound 1.165]", "120 to 124 °C"]
]}

melting point for CCON=CCNC(=O)c1ccc(-c2noc(C(F)(F)F)n2)cc1 [Compound 1.11] ?
156 to 158 °C

// query: CCON=CCCNC(=O)c1ccc(-c2noc(C(F)(F)F)n2)cc1 [Compound 1.153]
132 to 136 °C

// query: CCON=CC(C)NC(=O)c1ccc(-c2noc(C(F)(F)F)n2)cc1F (centres unmarked) [Compound 1.156]
113 to 115 °C

// query: CON=CCCNC(=O)c1ccc(-c2noc(C(F)(F)F)n2)cc1F [Compound 1.163]
98 to 100 °C

====

Each entry below lists one item and its recorded melting point value.

{"columns": ["smilesStr", "melting point"],
 "data": [
  ["CO/N=C(/C)CNC(=O)c1ccc(-c2noc(C(F)(F)F)n2)cc1", "151 to 152 °C"],
  ["CO/N=C(\\C)CNC(=O)c1ccc(-c2noc(C(F)(F)F)n2)cc1", "145 to 146 °C"],
  ["CON=CCCNC(=O)c1ccc(-c2noc(C(F)(F)F)n2)c(F)c1", "103 to 108 °C"],
  ["CO/N=C/CN(C(=O)c1ccc(-c2noc(C(F)(F)F)n2)cc1)C1CC1", "60 to 62 °C"]
]}

melting point for "CCON=CCCNC(=O)c1ccc(-c2noc(C(F)(F)F)n2)cc1F" ?
97 to 99 °C
